# test.details: ATG_EGR_CIS: Attagene CIS-FACTORIAL HepG2 Assay for human Early Growth Response 1 (EGR1) (AID 2282938)
# cond: HepG2 Attagene CIS-FACTORIAL EGR reporter mRNA; actives raise or lower the signal
The source made the active and inactive calls. How the source made its calls: active means hit-call score of the fitted dose curve at least 0.9, where 1 is the maximum; inactive means score below 0.9.
A correct response names exactly one class from active, inactive

Example entries and their recorded answers appear below.
>>> cat("COc1ccc(CCN2CCC(Nc3nc4ccccc4n3Cc3ccc(F)cc3)CC2)cc1")
"inactive"
>>> cat("CS(=O)(=O)c1ccc(C2=C(c3ccccc3)C(=O)OC2)cc1")
"inactive"
>>> cat("CC(O)C1CCCCC1 (configuration not stated)")
"inactive"

Test call for this molecule, please: Cc1cc(=O)oc2cc(N(C)C)ccc12
inactive

Give the logged outcome of this assay for the following molecule: Clc1cc(Cl)c(-c2c(Cl)c(Cl)cc(Cl)c2Cl)cc1Cl
inactive

Could you check what this test reported for O=C1OC(=O)c2c(Br)c(Br)c(Br)c(Br)c21 ?
inactive

So what was the verdict on O=[N+]([O-])c1cccc(Cl)c1 in this test?
inactive

Could you kindly confirm the outcome this assay logged for CCC(C)c1cc([N+](=O)[O-])cc([N+](=O)[O-])c1OC(=O)OC(C)C (configuration not stated) ?
active

Outcome? C/C=C(\C)C(=O)OCCc1ccccc1
inactive

Hey, what did the test say about Cc1ccc(S(=O)(=O)Oc2ccc(N=Nc3ccc(-c4ccc(N=Nc5c(O)ccc6cc(S(=O)(=O)O)cc(S(=O)(=O)O)c56)c(C)c4)cc3C)cc2)cc1 ?
inactive

Please state the recorded outcome for this molecule: C1CCOC1
inactive

// outcome(item) with item = CCCCCCCCCCCCS(=O)(=O)Cl
inactive
